Quick note: these are IC50 numbers for system: Acetylcholinesterase (Homo sapiens)
Sequence (P22303 whole entry): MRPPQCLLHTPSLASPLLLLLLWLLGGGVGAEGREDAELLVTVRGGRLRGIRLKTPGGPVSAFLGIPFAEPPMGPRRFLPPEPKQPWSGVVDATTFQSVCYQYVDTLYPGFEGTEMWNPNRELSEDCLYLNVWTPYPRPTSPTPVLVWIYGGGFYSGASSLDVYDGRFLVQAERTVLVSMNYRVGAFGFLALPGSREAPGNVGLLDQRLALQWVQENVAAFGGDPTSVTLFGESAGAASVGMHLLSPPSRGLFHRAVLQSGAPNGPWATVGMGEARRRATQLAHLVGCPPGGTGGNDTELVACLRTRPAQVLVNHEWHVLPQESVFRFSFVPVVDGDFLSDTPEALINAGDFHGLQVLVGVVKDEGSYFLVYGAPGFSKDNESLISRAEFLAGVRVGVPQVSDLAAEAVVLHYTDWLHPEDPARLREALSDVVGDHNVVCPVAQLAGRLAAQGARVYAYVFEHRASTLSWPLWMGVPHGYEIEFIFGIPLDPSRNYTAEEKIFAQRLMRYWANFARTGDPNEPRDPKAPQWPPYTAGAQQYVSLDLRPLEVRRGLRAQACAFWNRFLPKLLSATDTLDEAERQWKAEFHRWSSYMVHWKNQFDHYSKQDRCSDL
measured.property: IC50 (µM)

> print(dat)
                                input.smiles  censoring.qualifier  recorded.measurement
 1    COc1cccc2c1C=[N+](c1cc(Cl)cc(Cl)c1)CC2                    >                    10
 2       COc1cccc2cc[n+](-c3ccc(C#N)cc3)cc12                    >                    10
 3    COc1cccc2cc[n+](-c3cc(Cl)cc(Cl)c3)cc12                    >                    10
 4  C[n+]1cc2c3c(ccc2c2ccc4cc5c(cc4c21)OCO5)OCO3                    =                  1.22
 5          COc1ccccc1-[n+]1ccc2cccc(OC)c2c1                    >                    10
 6         COc1cccc2c1C=[N+](c1cccc(F)c1)CC2                    >                    10
 7        COc1cccc2c1C=[N+](c1cccc(Cl)c1)CC2                    >                    10
 8       COc1cccc2c1C=[N+](c1ccc(C#N)cc1)CC2                    >                    10
 9          COc1cccc2cc[n+](-c3ccccc3Cl)cc12                    =                  5.33
10  COc1cccc2c1C=[N+](c1cccc(C(F)(F)F)c1)CC2                    >                    10
11        COc1ccc(-[n+]2ccc3cccc(OC)c3c2)cc1                    =                  0.14
12  COc1cccc2cc[n+](-c3cccc(C(F)(F)F)c3)cc12                    >                    10
13          COc1cccc2c1C=[N+](c1ccccc1Br)CC2                    =                   1.5
14         COc1cccc2cc[n+](-c3ccccc3C#N)cc12                    =                  1.75
15        COc1cccc2cc[n+](-c3c(F)cccc3F)cc12                    =                   2.7
16       COc1cccc2cc[n+](-c3cccc(C#N)c3)cc12                    =                  3.41
17            COc1cccc2c1C=[N+](c1ccccc1)CC2                    =                  1.62
18         COc1cccc2cc[n+](-c3ccc(C)cc3)cc12                    =                  1.08
19         COc1cccc2c1C=[N+](c1ccc(I)cc1)CC2                    =                  1.01
20         COc1cccc2cc[n+](-c3ccc(F)cc3)cc12                    =                  0.67
21           COc1cccc2cc[n+](-c3ccccc3F)cc12                    =                  2.55
22    COc1cccc2cc[n+](-c3ccccc3C(F)(F)F)cc12                    >                    10
